assay_context: bacteroides thetaiotaomicron, 12 h, 2 µM
Description: The drug is tested on Bacteroides thetaiotaomicron strain: 3731 for biotransformation. The drug concentrations were measured before and after a 12-h incubation by liquid-chromatography-coupled mass spectrometry (LC–MS)
measured_attribute: Bacterial Biotransformation

Known results for molecules:
- molecule: "Cc1cn([C@H]2C[C@H](N=[N+]=[N-])[C@@H](CO)O2)c(=O)[nH]c1=O"
  Bacterial Biotransformation: "Compound NOT metabolized"
- molecule: "CN1CCc2c(c3ccccc3n2Cc2ccccc2)C1.CN1CCc2c(c3ccccc3n2Cc2ccccc2)C1.O=S(=O)(O)c1cccc2c(S(=O)(=O)O)cccc12"
  Bacterial Biotransformation: "Compound NOT metabolized"
- molecule: "CN(C)CC(c1ccc(O)cc1)C1(O)CCCCC1.O=C(O)CCC(=O)O (centres undefined) [DESVENLAFAXINE SUCCINATE]"
  Bacterial Biotransformation: "Compound NOT metabolized"
- molecule: "CC(C)[C@H]1CC[C@H](C(=O)N[C@H](Cc2ccccc2)C(=O)O)CC1 [NATEGLINIDE]"
  Bacterial Biotransformation: "Compound NOT metabolized"
- molecule: "CN1CCC(=C2c3ccccc3CCc3cccnc32)CC1.O=C(O)/C=C\\C(=O)O.O=C(O)/C=C\\C(=O)O [AZATADINE MALEATE]"
  Bacterial Biotransformation: "Compound NOT metabolized"
- molecule: "OC(c1cc(C(F)(F)F)nc2c(C(F)(F)F)cccc12)C1CCCCN1 (centres undefined)"
  Bacterial Biotransformation: "Compound NOT metabolized"

Enquiry: Fill in: Bacterial Biotransformation of CN(C)C(=O)C(CCN1CCC(O)(c2ccc(Cl)cc2)CC1)(c1ccccc1)c1ccccc1 [LOPERAMIDE] is ___
Return: Compound NOT metabolized

Enquiry: Can you check COC1=C(OC)C(=O)C(CCCCCCCCCCO)=C(C)C1=O next?
Return: Compound NOT metabolized

Enquiry: Can you check C[C@@H]1C[C@H]2[C@@H]3CCC4=CC(=O)C=C[C@]4(C)[C@@]3(F)[C@@H](O)C[C@]2(C)[C@@]1(O)C(=O)CO next?
Return: Compound NOT metabolized

Enquiry: Can you check O=C1[C@H](CC[C@H](O)c2ccc(F)cc2)[C@@H](c2ccc(O)cc2)N1c1ccc(F)cc1 next?
Return: Compound NOT metabolized

Enquiry: Can you check C=CCN1CC[C@]23c4c5ccc(O)c4O[C@H]2C(=O)CC[C@@]3(O)[C@H]1C5 next?
Return: Compound metabolized

Enquiry: Can you check CCOC(=O)[C@H](CCc1ccccc1)N[C@@H](C)C(=O)N1CCC[C@H]1C(=O)O.O=C(O)/C=C\C(=O)O [ENALAPRIL MALEATE] next?
Return: Compound NOT metabolized

Enquiry: Can you check CCCC1O[C@@H]2C[C@H]3[C@@H]4CCC5=CC(=O)C=C[C@]5(C)[C@H]4[C@@H](O)C[C@]3(C)[C@]2(C(=O)CO)O1 (some centres undefined) [BUDESONIDE] next?
Return: Compound metabolized

###

assay_context: segatella copri, 12 h, 2 µM
Description: The drug is tested on Prevotella copri strain: DSM18205 for biotransformation. The drug concentrations were measured before and after a 12-h incubation by liquid-chromatography-coupled mass spectrometry (LC–MS)

- compound: "CSc1ccc2c(c1)C(N1CCN(C)CC1)Cc1ccccc1S2.O=C(O)/C=C\\C(=O)O (centres undefined)"
  Bacterial Biotransformation: "Compound metabolized"
- compound: "CCCc1nc(C(C)(C)O)c(C(=O)OCc2oc(=O)oc2C)n1Cc1ccc(-c2ccccc2-c2nnn[nH]2)cc1"
  Bacterial Biotransformation: "Compound metabolized"
- compound: "CCOc1ccc2nc(S(N)(=O)=O)sc2c1 [ETHOXZOLAMIDE]"
  Bacterial Biotransformation: "Compound metabolized"

###

measurement_protocol: The drug is tested on Bacteroides vulgatus strain: ATCC8482 for biotransformation. The drug concentrations were measured before and after a 12-h incubation by liquid-chromatography-coupled mass spectrometry (LC–MS)
assay_context: phocaeicola vulgatus, 2 µM
measured_attribute: Bacterial Biotransformation

Known results for molecules:
- molecule: "CC[C@H](C)C(=O)O[C@H]1C[C@@H](C)C=C2C=C[C@H](C)[C@H](CC[C@@H]3C[C@@H](O)CC(=O)O3)[C@H]21"
  Bacterial Biotransformation: "Compound metabolized"
- molecule: "COc1ccc([C@@H]2Sc3ccccc3N(CCN(C)C)C(=O)[C@@H]2OC(C)=O)cc1"
  Bacterial Biotransformation: "Compound metabolized"
- molecule: "CN1CCN(C2=Nc3cc(Cl)ccc3Nc3ccccc32)CC1"
  Bacterial Biotransformation: "Compound NOT metabolized"
- molecule: "CCC(COC(=O)c1cc(OC)c(OC)c(OC)c1)(c1ccccc1)N(C)C.O=C(O)/C=C\\C(=O)O (stereo not given)"
  Bacterial Biotransformation: "Compound NOT metabolized"

Please turn your attention to the following entry.
Enquiry: Fill in: Bacterial Biotransformation of COc1ccccc1N1CCN(CC(O)COc2cccc3ccccc23)CC1 (stereo not given) is ___
Return: Compound NOT metabolized

###

measurement_protocol: The drug is tested on Blautia luti strain: DSM14534 for biotransformation. The drug concentrations were measured before and after a 12-h incubation by liquid-chromatography-coupled mass spectrometry (LC–MS)
Assay type: ADME
Design: dose 2 uM, timepoint 0 vs 12 hours
assay_context: 2 µM
measured_attribute: Bacterial Biotransformation

Known results for compounds:
- compound: "CC(C)C[C@H]1C(=O)N2CCC[C@H]2[C@]2(O)O[C@](NC(=O)[C@@H]3C=C4c5cccc6[nH]c(Br)c(c56)C[C@H]4N(C)C3)(C(C)C)C(=O)N12.CS(=O)(=O)O [BROMOCRIPTINE MESYLATE]"
  Bacterial Biotransformation: "Compound metabolized"
- compound: "COC(=O)[C@H]1[C@H]2C[C@@H]3c4[nH]c5cc(OC)ccc5c4CCN3C[C@H]2C[C@@H](OC(=O)c2cc(OC)c(OC)c(OC)c2)[C@@H]1OC"
  Bacterial Biotransformation: "Compound NOT metabolized"
- compound: "COc1ccc(C(CN(C)C)C2(O)CCCCC2)cc1 (configuration not stated)"
  Bacterial Biotransformation: "Compound NOT metabolized"
- compound: "CCN(CC)CCNC(=O)c1ccc(NC(C)=O)cc1 [ACECAINIDE]"
  Bacterial Biotransformation: "Compound NOT metabolized"

Enquiry: Fill in: Bacterial Biotransformation of N=C(N)NC(=O)Cc1c(Cl)cccc1Cl is ___
Return: Compound NOT metabolized

Enquiry: Can you check Clc1ccc(Cn2c(CN3CCCC3)nc3ccccc32)cc1 next?
Return: Compound NOT metabolized

Enquiry: Can you check Clc1cccc(Cl)c1N=C1NCCN1 next?
Return: Compound NOT metabolized

Enquiry: Can you check NC(=O)N1c2ccccc2CC(=O)c2ccccc21 [OXCARBAZEPINE] next?
Return: Compound metabolized

Enquiry: Can you check COc1ccccc1OCC(O)COC(N)=O (configuration not stated) next?
Return: Compound NOT metabolized

Enquiry: Can you check COc1ccc(CCN(C)CCCC(C#N)(c2ccc(OC)c(OC)c2)C(C)C)cc1OC (configuration not stated) next?
Return: Compound NOT metabolized

Enquiry: Can you check Nc1nc(NC2CC2)c2ncn([C@H]3C=C[C@@H](CO)C3)c2n1.Nc1nc(NC2CC2)c2ncn([C@H]3C=C[C@@H](CO)C3)c2n1.O=S(=O)(O)O [ABACAVIR SULFATE] next?
Return: Compound NOT metabolized

Enquiry: Can you check CC(C)(C)NC(=O)[C@H]1CC[C@H]2[C@@H]3CC[C@H]4NC(=O)C=C[C@]4(C)[C@H]3CC[C@]12C [FINASTERIDE] next?
Return: Compound NOT metabolized

Enquiry: Can you check COc1ccc2[nH]c([S+]([O-])Cc3ncc(C)c(OC)c3C)nc2n1 (configuration not stated) next?
Return: Compound metabolized

Enquiry: Can you check CCOc1ccc2nc(S(N)(=O)=O)sc2c1 [ETHOXZOLAMIDE] next?
Return: Compound metabolized

Enquiry: Can you check C#C[C@]1(OC(C)=O)CC[C@H]2[C@@H]3CCC4=C/C(=N/O)CC[C@@H]4[C@H]3CC[C@@]21CC [NORGESTIMATE] next?
Return: Compound NOT metabolized

Enquiry: Can you check CCc1oc2ccccc2c1C(=O)c1cc(Br)c(O)c(Br)c1 next?
Return: Compound NOT metabolized

Enquiry: Can you check CC(C)(C)NCC(O)COc1cccc2c1CC(O)C(O)C2 (configuration not stated) next?
Return: Compound NOT metabolized

###

measurement_protocol: The drug is tested on Bacteroides sp. WH2 strain: WH2 for biotransformation. The drug concentrations were measured before and after a 12-h incubation by liquid-chromatography-coupled mass spectrometry (LC–MS)
assay_context: bacteroides sp. wh2, 12 h, 2 µM
measured_attribute: Bacterial Biotransformation

Known results for molecules:
- molecule: "COC1=CC(=O)C[C@@H](C)[C@]12Oc1c(Cl)c(OC)cc(OC)c1C2=O"
  Bacterial Biotransformation: "Compound NOT metabolized"
- molecule: "COc1ccc(CCN(C)CCCC(C#N)(c2ccc(OC)c(OC)c2)C(C)C)cc1OC (stereo unspecified)"
  Bacterial Biotransformation: "Compound NOT metabolized"
- molecule: "CCCc1nc2c(C)cc(-c3nc4ccccc4n3C)cc2n1Cc1ccc(-c2ccccc2C(=O)O)cc1"
  Bacterial Biotransformation: "Compound metabolized"
- molecule: "Cc1ccccc1C(OCCN(C)C)c1ccccc1.O=C(O)CC(O)(CC(=O)O)C(=O)O (stereo unspecified) [ORPHENADRINE CITRATE]"
  Bacterial Biotransformation: "Compound NOT metabolized"
- molecule: "CCCCC(=O)O[C@]1(C(=O)CO)[C@@H](C)C[C@H]2[C@@H]3CCC4=CC(=O)C=C[C@]4(C)[C@@]3(F)[C@@H](O)C[C@@]21C [BETAMETHASONE VALERATE]"
  Bacterial Biotransformation: "Compound NOT metabolized"
- molecule: "CCOC(=O)C1=C[C@]2(CC)CCCN3CCc4c(n1c1ccccc41)[C@@H]32"
  Bacterial Biotransformation: "Compound NOT metabolized"
- molecule: "O=c1[nH]c2ccccc2n1CCCN1CCC(n2c(=O)[nH]c3cc(Cl)ccc32)CC1"
  Bacterial Biotransformation: "Compound NOT metabolized"
- molecule: "CCc1nc(N)nc(N)c1-c1ccc(Cl)cc1"
  Bacterial Biotransformation: "Compound NOT metabolized"

Please turn your attention to the following entry.
Enquiry: Fill in: Bacterial Biotransformation of Cc1ccc(/C(=C\CN2CCCC2)c2ccccn2)cc1 is ___
Return: Compound NOT metabolized
